# protocol: Plasma pharmacokinetics after single ascending doses (SAD), phase 1
# Assay type: in vivo, human (healthy adult participants)
# condition_parameters: human, single 1-h IV infusion 25 mg, plasma, n = 5, median (range)
Where a SMILES comes first, the peptide text is derived from it. Bridges are numbered along the chain shown (N, C = ends). [ ]: non-standard residue; d: D form. The star is where a group is joined. X1 = O=C(c1ccc(Cl)cc1Cl)*; Dab = NCC[C@H](N)C(=O)O; Abu = CC[C@H](N)C(=O)O; Dap = NC[C@H](N)C(=O)O
measure: Tmax (h)
State just the number; it will be interpreted in h.

Ask: Looking for the measured Tmax of CC[C@@H]1NC(=O)[C@@H](CC(C)C)NC(=O)[C@H](CCN)NC(=O)[C@@H](NC(=O)[C@H](CN)NC(=O)[C@@H](NC(=O)[C@H](CCN)NC(=O)c2ccc(Cl)cc2Cl)[C@@H](C)O)CCNC(=O)[C@H]([C@@H](C)O)NC(=O)[C@H](CCN)NC(=O)[C@H](CCN)NC1=O [BRII-693] (X1-[Dab]T[Dap][Dab][Dab][dL][Abu][Dab][Dab]T; lactam 4-C; N-terminus assumed) , can you help?
Result: 1.1

* * *

# protocol: Plasma pharmacokinetics after multiple ascending doses (MAD), phase 1
# Assay type: in vivo, human (healthy adult participants)
# condition_parameters: human, plasma, iv, 150 mg, First q6h dose (day 3), 7-day MAD 150 mg q6h × 7, n = 5, arithmetic mean ± SD; read-out: VZ
Where a SMILES comes first, the peptide text is derived from it. Bridges are numbered along the chain shown (N, C = ends). [ ]: non-standard residue; d: D form. The star is where a group is joined. X1 = O=C(c1ccc(Cl)cc1Cl)*; Dab = NCC[C@H](N)C(=O)O; Abu = CC[C@H](N)C(=O)O; Dap = NC[C@H](N)C(=O)O
measure: Vd (L)
State just the number; it will be interpreted in L.

Ask: Please report the recorded Vd for CC[C@@H]1NC(=O)[C@@H](CC(C)C)NC(=O)[C@H](CCN)NC(=O)[C@@H](NC(=O)[C@H](CN)NC(=O)[C@@H](NC(=O)[C@H](CCN)NC(=O)c2ccc(Cl)cc2Cl)[C@@H](C)O)CCNC(=O)[C@H]([C@@H](C)O)NC(=O)[C@H](CCN)NC(=O)[C@H](CCN)NC1=O [BRII-693] (X1-[Dab]T[Dap][Dab][Dab][dL][Abu][Dab][Dab]T; lactam 4-C; N-terminus assumed) .
Result: 17.2

* * *

# protocol: Plasma pharmacokinetics after multiple ascending doses (MAD), phase 1
# Assay type: in vivo, human (healthy adult participants)
# condition_parameters: human, plasma, iv, 150 mg, Last q6h dose (day 14), 14-day MAD 150 mg q6h × 14, Chinese, n = 6, arithmetic mean ± SD; read-out: VZ
Where a SMILES comes first, the peptide text is derived from it. Bridges are numbered along the chain shown (N, C = ends). [ ]: non-standard residue; d: D form. The star is where a group is joined. X1 = O=C(c1ccc(Cl)cc1Cl)*; Dab = NCC[C@H](N)C(=O)O; Abu = CC[C@H](N)C(=O)O; Dap = NC[C@H](N)C(=O)O
measure: Vd
Form entry: enter the amount, then its unit.

Ask: Item under review: CC[C@@H]1NC(=O)[C@@H](CC(C)C)NC(=O)[C@H](CCN)NC(=O)[C@@H](NC(=O)[C@H](CN)NC(=O)[C@@H](NC(=O)[C@H](CCN)NC(=O)c2ccc(Cl)cc2Cl)[C@@H](C)O)CCNC(=O)[C@H]([C@@H](C)O)NC(=O)[C@H](CCN)NC(=O)[C@H](CCN)NC1=O [BRII-693] (X1-[Dab]T[Dap][Dab][Dab][dL][Abu][Dab][Dab]T; lactam 4-C; N-terminus assumed) . Reported Vd?
Result: 61.9 L

* * *

# protocol: Plasma pharmacokinetics after multiple ascending doses (MAD), phase 1
# Assay type: in vivo, human (healthy adult participants)
# condition_parameters: human, plasma, iv, 150 mg, Last q6h dose (day 14), 14-day MAD 150 mg q6h × 14, Chinese, n = 6, arithmetic mean ± SD; read-out: AUC0–6h
Where a SMILES comes first, the peptide text is derived from it. Bridges are numbered along the chain shown (N, C = ends). [ ]: non-standard residue; d: D form. The star is where a group is joined. X1 = O=C(c1ccc(Cl)cc1Cl)*; Dab = NCC[C@H](N)C(=O)O; Abu = CC[C@H](N)C(=O)O; Dap = NC[C@H](N)C(=O)O
measure: AUC(0-t) (ng·h/mL)
Answer in ng·h/mL, number only, no unit symbol.

Ask: Need AUC(0-t), item CC[C@@H]1NC(=O)[C@@H](CC(C)C)NC(=O)[C@H](CCN)NC(=O)[C@@H](NC(=O)[C@H](CN)NC(=O)[C@@H](NC(=O)[C@H](CCN)NC(=O)c2ccc(Cl)cc2Cl)[C@@H](C)O)CCNC(=O)[C@H]([C@@H](C)O)NC(=O)[C@H](CCN)NC(=O)[C@H](CCN)NC1=O [BRII-693] (X1-[Dab]T[Dap][Dab][Dab][dL][Abu][Dab][Dab]T; lactam 4-C; N-terminus assumed)
Result: 42500

* * *

# protocol: Plasma pharmacokinetics after single ascending doses (SAD), phase 1
# Assay type: in vivo, human (healthy adult participants)
# condition_parameters: human, single 1-h IV infusion 400 mg, plasma, n = 6, arithmetic mean ± SD
Where a SMILES comes first, the peptide text is derived from it. Bridges are numbered along the chain shown (N, C = ends). [ ]: non-standard residue; d: D form. The star is where a group is joined. X1 = O=C(c1ccc(Cl)cc1Cl)*; Dab = NCC[C@H](N)C(=O)O; Abu = CC[C@H](N)C(=O)O; Dap = NC[C@H](N)C(=O)O
measure: Cmax (ng/mL)
Just the number in ng/mL, nothing appended.

Ask: What does the data say about its Cmax? Entry: CC[C@@H]1NC(=O)[C@@H](CC(C)C)NC(=O)[C@H](CCN)NC(=O)[C@@H](NC(=O)[C@H](CN)NC(=O)[C@@H](NC(=O)[C@H](CCN)NC(=O)c2ccc(Cl)cc2Cl)[C@@H](C)O)CCNC(=O)[C@H]([C@@H](C)O)NC(=O)[C@H](CCN)NC(=O)[C@H](CCN)NC1=O [BRII-693] (X1-[Dab]T[Dap][Dab][Dab][dL][Abu][Dab][Dab]T; lactam 4-C; N-terminus assumed)
Result: 24300

* * *

# protocol: Plasma pharmacokinetics after single ascending doses (SAD), phase 1
# Format: in vivo, human (healthy adult participants)
# condition_parameters: human, single 1-h IV infusion 50 mg, plasma, n = 6, arithmetic mean ± SD
Where a SMILES comes first, the peptide text is derived from it. Bridges are numbered along the chain shown (N, C = ends). [ ]: non-standard residue; d: D form. The star is where a group is joined. X1 = O=C(c1ccc(Cl)cc1Cl)*; Dab = NCC[C@H](N)C(=O)O; Abu = CC[C@H](N)C(=O)O; Dap = NC[C@H](N)C(=O)O
measure: AUC(0-inf)
Remember to follow the number with its unit.

Ask: Given the entry CC[C@@H]1NC(=O)[C@@H](CC(C)C)NC(=O)[C@H](CCN)NC(=O)[C@@H](NC(=O)[C@H](CN)NC(=O)[C@@H](NC(=O)[C@H](CCN)NC(=O)c2ccc(Cl)cc2Cl)[C@@H](C)O)CCNC(=O)[C@H]([C@@H](C)O)NC(=O)[C@H](CCN)NC(=O)[C@H](CCN)NC1=O [BRII-693] (X1-[Dab]T[Dap][Dab][Dab][dL][Abu][Dab][Dab]T; lactam 4-C; N-terminus assumed) , report its measured AUC(0-inf).
Result: 12200 ng·h/mL

* * *

# protocol: Plasma pharmacokinetics after single ascending doses (SAD), phase 1
# Type: in vivo, human (healthy adult participants)
# condition_parameters: human, single 1-h IV infusion 400 mg, plasma, n = 6, median (range)
Where a SMILES comes first, the peptide text is derived from it. Bridges are numbered along the chain shown (N, C = ends). [ ]: non-standard residue; d: D form. The star is where a group is joined. X1 = O=C(c1ccc(Cl)cc1Cl)*; Dab = NCC[C@H](N)C(=O)O; Abu = CC[C@H](N)C(=O)O; Dap = NC[C@H](N)C(=O)O
measure: Tmax (h)
# unit: h | format: bare number

Ask: For the compound CC[C@@H]1NC(=O)[C@@H](CC(C)C)NC(=O)[C@H](CCN)NC(=O)[C@@H](NC(=O)[C@H](CN)NC(=O)[C@@H](NC(=O)[C@H](CCN)NC(=O)c2ccc(Cl)cc2Cl)[C@@H](C)O)CCNC(=O)[C@H]([C@@H](C)O)NC(=O)[C@H](CCN)NC(=O)[C@H](CCN)NC1=O [BRII-693] (X1-[Dab]T[Dap][Dab][Dab][dL][Abu][Dab][Dab]T; lactam 4-C; N-terminus assumed) , what Tmax is on record?
Result: 1.19
